Read-out: Lipoprotein lipase (LPL), LPL (gene 4023)
Test: LTEA_HepaRG_LPL: Life Technologies and Expression Analysis (LTEA) Assay for Lipoprotein lipase (LPL) using HepaRG (AID 2283515)
Settings: mRNA level, 48 h; actives raise or lower the signal
Activity calls are given as the source filed them. The calls were made as follows: active = hit-call score of the fitted dose curve at least 0.9, where 1 is the maximum; inactive = score below 0.9.
parameter: AC50

Reference set (4 entries):
CN[C@H]1CC[C@@H](c2ccc(Cl)c(Cl)c2)c2ccc(S(N)(=O)=O)cc21; 11.9 µM (active)
CCCCCCCCCCC; inactive
O=c1c(O)c(-c2ccc(O)c(O)c2)oc2cc(O)cc(O)c12; inactive
OC[C@@H](O)[C@@H](O)[C@H](O)[C@H](O)CO; inactive

I would be grateful if you could share the reported AC50 for CC(C)c1ccc(C(=O)N=C(N)N)cc1S(C)(=O)=O .
0.31 µM (active)

And what about the molecule COc1cc(C=O)ccc1O ?
inactive

And what about the molecule CC=Cc1ccc(O)c(OC)c1 ?
inactive
